target desc: SpBbc1
test method notes: SPOT peptide array binding signal intensity (averaged, normalized) (arbitrary units (background-subtracted, floor 0; scale differs between SH3 domains)); higher = stronger binding of the SH3 domain to the peptide
Measured SPOT peptide array binding signal intensity values are reported for all entries that follow.
Reply with the value as a number alone.

Example binders with recorded SPOT peptide array binding signal intensity:
Lookup: Fill in reported SPOT peptide array binding signal intensity for this entry: KRKRFNLLLPKPYLT
Found: 10.8

Lookup: Give SPOT peptide array binding signal intensity for the following binder: SGVRLPAPPPPPRRG
Found: 19.2

API: the following record is the query input.
Lookup: Please report the measured SPOT peptide array binding signal intensity for FYNRTAFQLPGDARV
Found: 0.5

The reported numbers originate from the supplement of paper PMC4466140.
